For each entry below, report its GI50 value.
molecular target: Ba/F3-EGFR (d746-750/T790M/C797S) (Homo sapiens, UniProt P00533, DEL746-750/T790M/C797S, cells depend on it); assay: Growth inhibition of cell line expressing EGFR (d746-750/T790M/C797S); assay type: cell-based, mouse; conditions: Test Example 2, Table 7; culture 3 days, CellTiter-Glo; read-out: BaF3_EGFR (d746-750/T790M/C797S) IC50 value
Sequence (P00533 with tags, fused parts or gaps DEL746-750/T790M/C797S): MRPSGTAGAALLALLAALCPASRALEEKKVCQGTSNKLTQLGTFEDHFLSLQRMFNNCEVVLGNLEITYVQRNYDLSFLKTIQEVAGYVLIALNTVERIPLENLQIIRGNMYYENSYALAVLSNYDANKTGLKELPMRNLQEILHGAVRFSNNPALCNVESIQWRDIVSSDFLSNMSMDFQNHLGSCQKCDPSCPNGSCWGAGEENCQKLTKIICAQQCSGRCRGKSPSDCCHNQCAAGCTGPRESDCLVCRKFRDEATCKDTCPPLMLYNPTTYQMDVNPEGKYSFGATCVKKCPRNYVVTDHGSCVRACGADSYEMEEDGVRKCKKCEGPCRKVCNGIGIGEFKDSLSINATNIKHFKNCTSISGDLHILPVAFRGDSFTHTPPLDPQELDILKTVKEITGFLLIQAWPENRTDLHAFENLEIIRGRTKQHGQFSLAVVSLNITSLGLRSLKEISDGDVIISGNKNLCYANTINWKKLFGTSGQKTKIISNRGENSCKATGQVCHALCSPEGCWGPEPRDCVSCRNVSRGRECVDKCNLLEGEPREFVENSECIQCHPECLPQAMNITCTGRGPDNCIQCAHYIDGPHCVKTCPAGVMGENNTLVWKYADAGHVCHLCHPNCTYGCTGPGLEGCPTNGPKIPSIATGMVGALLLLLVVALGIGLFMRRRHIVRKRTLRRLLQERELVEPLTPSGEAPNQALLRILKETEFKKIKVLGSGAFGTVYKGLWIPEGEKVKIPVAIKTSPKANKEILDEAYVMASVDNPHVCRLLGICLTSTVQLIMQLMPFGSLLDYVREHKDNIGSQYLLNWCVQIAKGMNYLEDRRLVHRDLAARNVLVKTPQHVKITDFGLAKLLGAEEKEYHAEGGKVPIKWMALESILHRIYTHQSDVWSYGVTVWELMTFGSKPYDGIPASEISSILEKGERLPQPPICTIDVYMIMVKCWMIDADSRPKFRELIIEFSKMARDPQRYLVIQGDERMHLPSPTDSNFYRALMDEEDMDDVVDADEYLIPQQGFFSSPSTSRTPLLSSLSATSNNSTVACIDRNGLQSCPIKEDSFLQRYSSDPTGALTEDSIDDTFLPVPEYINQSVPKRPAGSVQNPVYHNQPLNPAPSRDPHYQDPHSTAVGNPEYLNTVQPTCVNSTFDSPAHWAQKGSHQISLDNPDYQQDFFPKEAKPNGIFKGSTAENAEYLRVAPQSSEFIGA
State just the number; it will be interpreted in nM.

**Query** Respond only with GI50 recorded for C#Cc1c(-c2cnc3ccccc3c2)c2c(N)ncnc2n1C12CCC(NC(=O)c3cncnc3)(CC1)C2
**Result** 20

**Query** Respond only with GI50 recorded for C#Cc1c(-c2cnc3ccccc3c2)c2c(N)ncnc2n1C12CCC(CNC(=O)c3cnc(C)cn3)(CC1)C2
**Result** 204

**Query** Respond only with GI50 recorded for C#Cc1c(-c2cnc3ccccc3c2)c2c(N)ncnc2n1[C@@H]1CCN(C(=O)C=C)C1 [Comparative Example B, reference compound]
**Result** 1080

**Query** Respond only with GI50 recorded for C#Cc1c(-c2cnc3ccccc3c2)c2c(N)ncnc2n1C12CCC(NC(=O)c3cccnc3)(CC1)C2
**Result** 42
